All figures here come from patent US9018391B2.

experiment: In Vitro Phospholipidosis Assay (Assay 3), Nile red staining
Type: cell-based, human
testParameters: human, first effect concentration, U937 cells, read-out: Phospholipidosis FEC IC50 μM (assay 3)
Protocol: In Vitro Phospholipidosis Assay (Assay 3) The phospholipidogenic potential of test compounds was assayed using the human hematopoetic U937 cell line. […] For Nile red staining of the 0.5 mL non-fixed cell samples, 50 μL of a ready to use Nile red solution (10 μg/mL) were added per sample. […] For the viability measurement, 12.5 μL of the ready to use PI solution (10 μg/mL) were added to the 0.5 mL non-fixed cell suspension. […]
Recorded IC50 at 48 h values for a group of compounds are listed next.
Report as a plain number; the unit µM is understood.

Take a look at these entries with their results.
compound	testValue
C[C@@H]1C[C@@]2(Cc3ccc(C#N)cc3[C@]23N=C(N)N(CCC(F)(F)F)C3=O)C[C@H](C)[C@H]1O	400
C[C@@H]1C[C@@]2(Cc3ccc(NC(=O)C(C)(C)F)cc3[C@]23N=C(N)N(CC(C)(C)F)C3=O)C[C@H](C)[C@H]1O	400
C[C@@H]1C[C@@]2(Cc3ccc(-c4cncnc4)cc3[C@]23N=C(N)N(CC(C)(C)F)C3=O)C[C@H](C)[C@H]1O	400
C[C@@H]1C[C@@]2(Cc3ccc(C#N)cc3[C@]23N=C(N)N(CC2(F)CCOCC2)C3=O)C[C@H](C)[C@H]1O	800
C[C@@H]1CC2(Cc3ccc(Cl)cc3[C@]23N=C(N)N(Cc2ncccn2)C3=O)C[C@H](C)[C@H]1O (some centres unmarked)	200
COC1CCC2(CC1)Cc1ccc(C#CC3CC3)cc1C21N=C(N)N(Cc2cncnc2)C1=O (centres unmarked) [reference compound]	25

Here is the next item to consider.
Task item: // IC50 at 48 h lookup, key: C[C@H]1C[C@@]2(CC[C@@H]1O)Cc1ccc(C#N)cc1[C@]21N=C(N)N(CC2CC(F)(F)C2)C1=O
Reply: 200
